measurement target: XBP1 (Homo sapiens, UniProt P17861)
Construct: made in house
Sequence (P17861 70-133 limits assumed): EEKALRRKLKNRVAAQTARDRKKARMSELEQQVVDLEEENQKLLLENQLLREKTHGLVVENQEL
assay remarks: Direct-binding FRET assay
run conditions: 23°C; C-terminal rhodamine design; repeat 1
Where no end group is shown, it is not given here.
measured endpoint: Kd

Identify Kd associated with the sequence SIAATLEKEEANLEKMNKKLAAEIESLLKEKDKLESVLNYHE [JUN-d1]
> 1 µM

* * *

measurement target: NFE2 (Homo sapiens, UniProt Q16621)
Construct: made in house
Sequence (Q16621 266-329 limits assumed): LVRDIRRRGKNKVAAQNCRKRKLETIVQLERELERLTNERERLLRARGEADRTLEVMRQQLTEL
assay remarks: Direct-binding FRET assay
run conditions: 23°C; C-terminal rhodamine design; repeat 1
Where no end group is shown, it is not given here.
measured endpoint: Kd

Look up and report measured Kd (NFE2 (Homo sapiens, UniProt Q16621)) for the following sequence: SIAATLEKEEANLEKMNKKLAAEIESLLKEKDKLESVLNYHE [JUN-d1]
> 1000 nM

* * *

measurement target: CREB1 (Homo sapiens)
Construct: made in house
Sequence (P16220 269-327 limits assumed): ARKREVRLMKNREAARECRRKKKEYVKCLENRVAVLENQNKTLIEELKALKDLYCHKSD
assay remarks: Direct-binding FRET assay
run conditions: 23°C; C-terminal fluorescein design as donor, TAMRA target titrated
Where no end group is shown, it is not given here.
measured endpoint: Kd

Identify Kd associated with the sequence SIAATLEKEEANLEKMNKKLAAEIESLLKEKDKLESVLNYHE [JUN-d1]
> 1000 nM

* * *

measurement target: CREB3L3 (Homo sapiens)
Construct: made in house
assay remarks: Direct-binding FRET assay
run conditions: 37°C; C-terminal rhodamine design; mean or single; read-out: Kd
pKd: −log10 of the molar value. Where no end group is shown, it is not given here.
Exercise: state measured pKd for each of the sequences provided.

Reference set, count: 2
1) NQIKTLRTRLSKLRKDNLQLEKDIANLERKAKDLRAEKEQLEYEL [ATF4-d1]	< 6.00
2) KRIAYLRQRIAELRNENHVLESRIQRMEKEKDALQQDRDHLEYEL [ATF5-d1]	6.18

Identify pKd associated with the sequence EREAQLENRVAHLKEKNQELKAQNLHLKEALSEAQNRNQELKNDA [XBP1-d1]
< 6.00

* * *

measurement target: ATF6 (Homo sapiens)
Sequence (P18850 306-369 limits assumed): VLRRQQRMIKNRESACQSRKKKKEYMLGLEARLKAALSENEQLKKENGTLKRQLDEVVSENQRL
assay remarks: Direct-binding FRET assay
Set-up: made in house
run conditions: 37°C; N-terminal rhodamine design; mean or single
Description: The direct binding assay was performed manually in 384-well plates and is similar to a previously described assay. Wells were filled with 20 μL of 1 mM TCEP-HCl. […] Briefly, the Kd of the designed peptide homodimer was experimentally determined and used with previously determined target homodimer Kd values to determine the heterodimer Kd. […] A minimum 15% change in the donor fluorescence upon titrating the acceptor peptide from 0 to 1000 nM was required for a fit to be attempted. […]
pKd: −log10 of the molar value. Where no end group is shown, it is not given here.
measured endpoint: pKd

Identify pKd associated with the sequence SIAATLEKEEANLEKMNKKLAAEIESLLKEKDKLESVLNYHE [JUN-d1]
< 6.00

* * *

measurement target: FOS (Homo sapiens, UniProt P01100)
Sequence (P01100 137-200 limits assumed): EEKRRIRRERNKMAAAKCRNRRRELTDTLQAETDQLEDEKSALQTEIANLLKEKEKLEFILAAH
assay remarks: Direct-binding FRET assay
Design: made in house
run conditions: 23°C; C-terminal fluorescein design as donor, TAMRA target titrated; read-out: Kd
Where no end group is shown, it is not given here.
measured endpoint: Kd

1. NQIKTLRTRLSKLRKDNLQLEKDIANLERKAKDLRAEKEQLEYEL [ATF4-d1]	> 1000 nM

--- query ---
Identify Kd associated with the sequence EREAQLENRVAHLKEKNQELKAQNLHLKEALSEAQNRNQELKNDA [XBP1-d1]
> 1000 nM

* * *

measurement target: BACH2 (Homo sapiens, UniProt Q9BYV9)
Sequence (Q9BYV9 646-709 limits assumed): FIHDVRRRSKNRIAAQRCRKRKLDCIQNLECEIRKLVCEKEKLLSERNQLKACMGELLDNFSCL
assay remarks: Direct-binding FRET assay
Set-up: made in house
run conditions: Kd, 23°C; N-terminal rhodamine design; mean or single
Where no end group is shown, it is not given here.
measured endpoint: Kd

Identify Kd associated with the sequence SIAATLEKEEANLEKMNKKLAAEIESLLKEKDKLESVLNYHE [JUN-d1]
> 1000 nM

* * *

measurement target: ATF3 (Homo sapiens, UniProt P18847)
Construct: made in house
Sequence (P18847 86-149 limits assumed): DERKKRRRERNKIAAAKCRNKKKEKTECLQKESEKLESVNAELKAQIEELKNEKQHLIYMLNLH
assay remarks: Direct-binding FRET assay
run conditions: 23°C; C-terminal fluorescein design as donor, TAMRA target titrated; read-out: Kd
Where no end group is shown, it is not given here.
Exercise: state measured Kd for each of the sequences provided.

1. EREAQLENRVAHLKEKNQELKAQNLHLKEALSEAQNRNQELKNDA [XBP1-d1]	> 1000 nM

Look up and report measured Kd (ATF3 (Homo sapiens, UniProt P18847)) for the following sequence: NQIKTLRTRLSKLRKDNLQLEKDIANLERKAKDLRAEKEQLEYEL [ATF4-d1]
> 1000 nM
